- protocolSummary: The compound was evaluated for its acid dissociation constant
- Type: ADME
assayReadout: pKa
// return a plain number; no unit text

query: What pKa value was documented for this molecule, "CNc1cc(NP(=O)(OC)OC)ccc1Nc1c2ccccc2nc2ccccc12" ?
result: 8.09

query: What pKa value was documented for this molecule, "COc1cc(NP(=O)(OC)OC)ccc1Nc1c2ccccc2nc2ccccc12" ?
result: 8.21

query: What pKa value was documented for this molecule, "COC(=O)Nc1ccc(Nc2c3ccccc3nc3ccccc23)c(N(C)C)c1" ?
result: 7.85

query: What pKa value was documented for this molecule, "COc1cc(NC(C)=O)ccc1Nc1c2ccccc2nc2ccccc12" ?
result: 7.79

query: What pKa value was documented for this molecule, "CC(=O)Nc1ccc(Nc2c3ccccc3nc3ccccc23)c(N(C)C)c1" ?
result: 7.59

query: What pKa value was documented for this molecule, "CNc1cc(NC(C)=O)ccc1Nc1c2ccccc2nc2ccccc12" ?
result: 7.8

query: What pKa value was documented for this molecule, "CNc1cc(NC(=O)OC)ccc1Nc1c2ccccc2nc2ccccc12" ?
result: 7.95

query: What pKa value was documented for this molecule, "COC(=O)Nc1ccc(Nc2c3ccccc3nc3ccccc23)c(OC)c1" ?
result: 7.93

query: What pKa value was documented for this molecule, "COP(=O)(Nc1ccc(Nc2c3ccccc3nc3ccccc23)c(N(C)C)c1)OC" ?
result: 8.17

* * *

- Tested on: HCT-8
- protocolSummary: Ability to inhibit the growth of human colon tumor HCT-8 cells in vitro.
- Format: functional, cell-based
What pIC50 was measured for each of the following?
Please treat pIC50 as minus the base-10 logarithm of the molar concentration.

query: What pIC50 value was documented for this molecule, "CNc1cc(NC(=O)OC)ccc1Nc1c2ccccc2nc2cc(Cl)ccc12" ?
result: 6.26

query: What pIC50 value was documented for this molecule, "CNc1cc(NC(=O)OC)ccc1Nc1c2ccc(Cl)cc2nc2c(OC)cccc12" ?
result: 5.96

query: What pIC50 value was documented for this molecule, "CNc1cc(NC(=O)OC)ccc1Nc1c2ccccc2nc2cc(C)ccc12" ?
result: 6.57

query: What pIC50 value was documented for this molecule, "CNc1cc(NC(=O)OC)ccc1Nc1c2ccccc2nc2cc(OC)ccc12" ?
result: 6.48

query: What pIC50 value was documented for this molecule, "CNc1cc(NC(=O)OC)ccc1Nc1c2ccccc2nc2c(F)cccc12" ?
result: 5.55

query: What pIC50 value was documented for this molecule, "CNc1cc(NC(=O)OC)ccc1Nc1c2ccccc2nc2c(OC)cccc12" ?
result: 6.20

query: What pIC50 value was documented for this molecule, "CNc1cc(NC(=O)OC)ccc1Nc1c2ccccc2nc2cc(I)ccc12" ?
result: 6.46

query: What pIC50 value was documented for this molecule, "CNc1cc(NC(=O)OC)ccc1Nc1c2ccccc2nc2cc(Br)ccc12" ?
result: 6.10

query: What pIC50 value was documented for this molecule, "CNc1cc(NC(=O)OC)ccc1Nc1c2ccccc2nc2ccc(C)cc12" ?
result: 6.07

query: What pIC50 value was documented for this molecule, "CNc1cc(NC(=O)OC)ccc1Nc1c2ccccc2nc2c(C)cccc12" ?
result: 6.72

query: What pIC50 value was documented for this molecule, "CNC(=O)c1cccc2c(Nc3ccc(NC(=O)OC)cc3NC)c3cccc(C)c3nc12" ?
result: 5.73
